experiment: cytotoxicity: viability of mock-infected MT-4 host cells (MTT method); format: cell-based; conditions: human, mt-4 cells, read-out: CD50: Cytotoxic concentration that causes death of cells by 50%
The label is Fulfilled for CC50 below 20 µg/mL and Not fulfilled for CC50 equal to or exceeding 20 µg/mL.

**Query** A record lists CCOCn1c(Cc2cc(C)cc(C)c2)c(CC)c(=O)[nH]c1=O [Ref. 1, reference compound] . Is its CC50 below 20 µg/mL?
**Result** Not fulfilled

**Query** Same question, CCc1c(Cc2cc(C)cc(C)c2)n(CC#Cc2ccccc2)c(=O)[nH]c1=O [Example 40] this time
**Result** Fulfilled

**Query** Same question, C=CCn1c(Oc2cc(C)cc(C)c2)c(CC)c(=O)[nH]c1=O [Example 57] this time
**Result** Not fulfilled

Please find the next compound below.
**Query** A record lists Cc1cc(C)cc(Sc2c(C(C)C)c(=O)[nH]c(=O)n2C/C=C/c2ccccc2)c1 [Example 29] . Is its CC50 below 20 µg/mL?
**Result** Not fulfilled

* * *

tested on: HIV; assay: inhibition of HIV-induced cytopathic effect in MT-4 cells (MTT method); format: cell-based; details: Human immunodeficiency virus 1, MT4; HIV-infected MT-4 cells; 1000 CCID50; 4 or 5 day incubation at 37° C.; MTT method; read-out: ED50: Effective concentration for the inhibition of the proliferation of HIV by 50%
Attribute: EC50

Solved entries:
**Query** # input molecule: C=CCn1c(Sc2ccccc2)c(CC)c(=O)[nH]c1=O [Example 12] ; wanted: its EC50
**Result** < 0.32 µg/mL

**Query** Same question, CCc1c(C(=O)c2cc(C)cc(C)c2)n(C/C=C/COC(C)=O)c(=O)[nH]c1=O [Example 80] this time
**Result** < 0.033 µg/mL

**Query** Same question, Cc1cc(C)cc(C(=O)c2c(C(C)C)c(=O)[nH]c(=O)n2CC#Cc2ccccc2)c1 [Example 56] this time
**Result** < 0.009 µg/mL

---
**Query** # input molecule: C/C=C/Cn1c(Oc2cc(C)cc(C)c2)c(C(C)C)c(=O)[nH]c1=O [Example 64] ; wanted: its EC50
**Result** < 0.009 µg/mL

**Query** Same question, CC#CCn1c(C(=O)c2cc(C)cc(C)c2)c(C(C)C)c(=O)[nH]c1=O [Example 55] this time
**Result** < 0.32 µg/mL

**Query** Same question, CCc1c(C(=O)c2cc(C)cc(C)c2)n(CC=CC(=O)OC)c(=O)[nH]c1=O [Example 8] this time
**Result** < 0.19 µg/mL

**Query** Same question, C=CCn1c(Oc2cc(C)cc(C)c2)c(CC)c(=O)[nH]c1=O [Example 57] this time
**Result** < 0.32 µg/mL

**Query** Same question, CCc1c(C(=O)c2cc(C)cc(C)c2)n(C/C=C/c2ccccc2)c(=O)[nH]c1=O [Example 45] this time
**Result** < 0.009 µg/mL

**Query** Same question, C/C=C/Cn1c(Sc2ccccc2)c(CC)c(=O)[nH]c1=O [Example 13] this time
**Result** < 0.32 µg/mL

* * *

Attribute: S.I.: Selectivity index (CD50/ED50)
system: HIV; test: inhibition of HIV-induced cytopathic effect in MT-4 cells (MTT method); type: cell-based; settings: ratio CD50/ED50, MT-4 cells

**Query** # input molecule: `C/C=C/Cn1c(C(=O)c2cc(C)cc(C)c2)c(CC)c(=O)[nH]c1=O` ; wanted: its S.I.: Selectivity index (CD50/ED50)
**Result** > 3,439

**Query** Same question, `C=CCn1c(Cc2cc(C)cc(C)c2)c(CC)c(=O)[nH]c1=O` this time
**Result** > 38

**Query** Same question, `Cc1cc(C)cc(C(=O)c2c(C(C)C)c(=O)[nH]c(=O)n2C/C=C/c2ccccc2)c1` this time
**Result** > 1,083

**Query** Same question, `CCc1c(Sc2cc(C)cc(C)c2)n(C/C=C/CCl)c(=O)[nH]c1=O` this time
**Result** > 93

**Query** Same question, `CCc1c(C(=O)c2cc(C)cc(C)c2)n(C/C=C/CN=[N+]=[N-])c(=O)[nH]c1=O` this time
**Result** > 911

**Query** Same question, `CCc1c(Cc2cc(C)cc(C)c2)n(C/C=C/C(=O)OC)c(=O)[nH]c1=O` this time
**Result** 7.6

**Query** Same question, `CCc1c(Oc2cc(C)cc(C)c2)n(C/C=C/c2ccccc2)c(=O)[nH]c1=O` this time
**Result** > 167

**Query** Same question, `CC/C=C/Cn1c(Sc2cc(C)cc(C)c2)c(C(C)C)c(=O)[nH]c1=O` this time
**Result** > 643

**Query** Same question, `CCc1c(Oc2cc(C)cc(C)c2)n(C/C=C/CO)c(=O)[nH]c1=O` this time
**Result** > 31

**Query** Same question, `Cc1cc(C)cc(Oc2c(C(C)C)c(=O)[nH]c(=O)n2C/C=C/c2ccccc2)c1` this time
**Result** > 893

Please find the next molecule below.
**Query** # input molecule: `CCc1c(Sc2ccccc2)n(C/C=C\COCc2ccccc2)c(=O)[nH]c1=O` ; wanted: its S.I.: Selectivity index (CD50/ED50)
**Result** 1.57
